Cited source: patent EP0097439A2

method description: Plasma levels of 9-deoxo-16,16-dimethyl-9-methylene-PGE2 by radioimmunoassay after insertion of a suppository
Type: in vivo, Rhesus monkeys (Macaca mulatta)
measurement context: rhesus monkey, plasma, 30 mg, plasma; Monkey #14; 1.5 Hours; 30 mg Free Acid in H15 Plus 2% CSD + 10% Triacetin Suppositories; read-out: Drug Levels
Protocol: A. Midtrimester pregnant female Rhesus monkeys (Macaca mulatta) are used. […] D. The plasma levels of 9-deoxo-16,16-d1methy1-9-methy1ene-PGE2 in monkeys treated with 6 formulations containing either 9-deoxo-16,16-dimethyl-9-methylene-PGE2 free acid or potassium salt are shown in Tables 1-6. In general, higher blood levels are measured in pregnant Rhesus monkeys than in non-pregnant monkeys.
value kind: concentration at 1.5 h (ng/mL)
Expressed in ng/mL, but write only the number.

Query block: Provide measured concentration at 1.5 h value, entry: C=C1C[C@@H](O)[C@H](/C=C/[C@@H](O)C(C)(C)CCCC)[C@H]1C/C=C\CCCC(=O)O [Free Acid, 9-deoxo-16,16-dimethyl-9-methylene-PGE2]
Result block: 32
